- experiment: Inhibition of MCP-1 induced chemotaxis in THP-1 cells
measured-endpoint: EC50 (µM)

[[record]]
molecule = "O=C(CNC(=O)c1cccc(C(F)(F)F)c1)NC1CCCN(Cc2ccc(Cl)cc2)C1 (centres undefined)"
unit_tag = "µM"
test_result = 0.61

[[record]]
molecule = "O=C(CNC(=O)c1cccc(C(F)(F)F)c1)N[C@H]1CCN(Cc2ccc(Cl)cc2)C1"
unit_tag = "µM"
test_result = 0.36

[[record]]
molecule = "O=C(CNC(=O)c1cccc(C(F)(F)F)c1)NCC1CCN(Cc2ccc(Cl)cc2)CC1"
unit_tag = "µM"
test_result = 0.04

[[record]]
molecule = "O=C(CNC(=O)c1cccc(C(F)(F)F)c1)N[C@@H]1CCN(Cc2ccc(Cl)cc2)C1"
unit_tag = "µM"
test_result = 0.02


###

- target-system: C-C chemokine receptor type 2 (Homo sapiens)
- Sequence (P41597 whole entry): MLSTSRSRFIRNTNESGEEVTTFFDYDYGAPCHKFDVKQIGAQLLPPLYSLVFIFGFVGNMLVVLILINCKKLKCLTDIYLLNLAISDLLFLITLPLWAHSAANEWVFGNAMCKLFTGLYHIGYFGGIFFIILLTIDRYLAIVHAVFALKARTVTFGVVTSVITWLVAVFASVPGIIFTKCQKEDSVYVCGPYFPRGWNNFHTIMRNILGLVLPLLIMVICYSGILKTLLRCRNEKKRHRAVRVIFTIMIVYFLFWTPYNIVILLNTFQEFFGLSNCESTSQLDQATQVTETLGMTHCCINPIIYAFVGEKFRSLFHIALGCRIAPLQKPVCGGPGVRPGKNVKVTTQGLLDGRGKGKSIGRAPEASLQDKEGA
- experiment: Inhibition of MCP-1 induced chemotaxis in THP-1 cells
measured-endpoint: EC50 (nM)

[[record]]
smiles_data = "O=C(CNC(=O)c1cccc(C(F)(F)F)c1)NC[C@H]1CCCN1Cc1ccc(Cl)cc1"
unit_tag = "nM"
test_result = 810

